- Measurement description: Lipophilicity, log D of the compound
- Assay type: physicochemical
- Condition: octanol/water
Outcome measure: logD

What does the data say about its logD? Entry: CCOc1nc(NC(=O)C2(NC(=O)c3ccc4c(C5CCCC5)c(-c5cnccn5)n(C)c4c3)CCCC2)cnc1/C=C/C(=O)O
3.2

Ok, now CCOc1nc(NC(=O)C(C)(C)NC(=O)c2ccc3c(C4CCCC4)c(-c4cncnc4)n(C)c3c2)ccc1/C=C/C(=O)O
3

Check CCOc1nc(NC(=O)C2(NC(=O)c3ccc4c(C5CCCC5)c(-c5ccccn5)n(C)c4c3)CCC2)cnc1/C=C/C(=O)O too.
3.1

* * *

- Measurement description: Half life in human liver microsomes at 2 uM
- Format: ADME
For each of the molecules below, state its half-life at 2 µM.

Consider the molecule shown here: CCOc1nc(NC(=O)C2(NC(=O)c3ccc4c(c3)c(C)c(-c3ccc(F)cn3)n4C3CCCCC3)CCC2)ccc1/C=C/C(=O)O What is its recorded half-life at 2 µM?
1.72 h

Okay, and CCOc1nc(NC(=O)C2(NC(=O)c3ccc4c(C5CCCC5)c(-c5cnccn5)n(C)c4c3)CCCC2)cnc1/C=C/C(=O)O ?
1.33 h

// same read-out, input: CCOc1nc(NC(=O)C2(NC(=O)c3ccc4c(C5CCCC5)c(-c5cncnc5)n(C)c4c3)CCC2)ccc1/C=C/C(=O)O
1.02 h

What would you report for CCOc1nc(NC(=O)C(C)(C)NC(=O)c2ccc3c(C4CCCC4)c(-c4ccc(F)cn4)n(C)c3c2)ccc1/C=C/C(=O)O ?
1.5 h

Cool, now CCOc1nc(NC(=O)C(C)(C)NC(=O)c2ccc3c(C4CCCC4)c(-c4ncc(Cl)cn4)n(C)c3c2)cnc1/C=C/C(=O)O
2.3 h

FYI, the data here is from ChEMBL document CHEMBL3407472.
